Tested on: UO-31 renal
Assay: NCI tumour cell line growth inhibition, 48 h
measured attribute: TGI

The following molecules have reported results that may help.
| molecule | TGI |
| --- | --- |
| CN(C)c1c(C2CC(O)C(CO)O2)c(=O)c1=O (centres undefined) | > 100 µM |
| CN1CCN(Cc2ccc(NC(=O)c3cccc(C#Cc4c(N)ncc5ccc(F)cc45)c3)cc2C(F)(F)F)CC1 | 1.27 µM |
| N[C@@H](Cc1ccc2oc3cc(=O)c4ccccc4c-3nc2c1)C(=O)O | > 100 µM |
| CCOC(=O)/C=C(/C(=O)OCC)n1ccc(=O)n(CC(=O)OCC)c1=O | 3.03 µM |
| C=COC(=O)N1C2CCCC(Cl)(C(C)=O)C1CC2 (centres undefined) | > 100 µM |

Challenge: Query for UO-31 renal: what TGI does the record show for N/C(=N\N=C\c1ccc(O)c(O)c1)NO ?
Response given: > 100 µM

Challenge: Query for UO-31 renal: what TGI does the record show for O=C1/C(=C\c2cccc(Oc3ccccc3)c2)SC(c2ccccc2)N1c1cccc(Cl)c1 (centres undefined) ?
Response given: > 100 µM

Challenge: Query for UO-31 renal: what TGI does the record show for CCSc1nc(C)nc2c1sc1nc3ccccc3n12 ?
Response given: > 100 µM

Challenge: Query for UO-31 renal: what TGI does the record show for COc1cc(C2SCC(=O)N2NC(=O)c2ccc(NC(C)=O)cc2OC)ccc1O (centres undefined) ?
Response given: > 100 µM

Challenge: Query for UO-31 renal: what TGI does the record show for Nc1nc(CC2(O)CCCCC2)cc(-c2ccccc2)n1 ?
Response given: > 91.6 µM

Challenge: Query for UO-31 renal: what TGI does the record show for FC(F)(F)C1(c2ccccc2)SCc2nc3ccccc3n21 (centres undefined) ?
Response given: > 100 µM
